Listed below: IC50 values for each entry.
- tested-on: Protein deacetylase HDAC6 (Homo sapiens, UniProt Q9UBN7)
- Sequence (Q9UBN7 whole entry): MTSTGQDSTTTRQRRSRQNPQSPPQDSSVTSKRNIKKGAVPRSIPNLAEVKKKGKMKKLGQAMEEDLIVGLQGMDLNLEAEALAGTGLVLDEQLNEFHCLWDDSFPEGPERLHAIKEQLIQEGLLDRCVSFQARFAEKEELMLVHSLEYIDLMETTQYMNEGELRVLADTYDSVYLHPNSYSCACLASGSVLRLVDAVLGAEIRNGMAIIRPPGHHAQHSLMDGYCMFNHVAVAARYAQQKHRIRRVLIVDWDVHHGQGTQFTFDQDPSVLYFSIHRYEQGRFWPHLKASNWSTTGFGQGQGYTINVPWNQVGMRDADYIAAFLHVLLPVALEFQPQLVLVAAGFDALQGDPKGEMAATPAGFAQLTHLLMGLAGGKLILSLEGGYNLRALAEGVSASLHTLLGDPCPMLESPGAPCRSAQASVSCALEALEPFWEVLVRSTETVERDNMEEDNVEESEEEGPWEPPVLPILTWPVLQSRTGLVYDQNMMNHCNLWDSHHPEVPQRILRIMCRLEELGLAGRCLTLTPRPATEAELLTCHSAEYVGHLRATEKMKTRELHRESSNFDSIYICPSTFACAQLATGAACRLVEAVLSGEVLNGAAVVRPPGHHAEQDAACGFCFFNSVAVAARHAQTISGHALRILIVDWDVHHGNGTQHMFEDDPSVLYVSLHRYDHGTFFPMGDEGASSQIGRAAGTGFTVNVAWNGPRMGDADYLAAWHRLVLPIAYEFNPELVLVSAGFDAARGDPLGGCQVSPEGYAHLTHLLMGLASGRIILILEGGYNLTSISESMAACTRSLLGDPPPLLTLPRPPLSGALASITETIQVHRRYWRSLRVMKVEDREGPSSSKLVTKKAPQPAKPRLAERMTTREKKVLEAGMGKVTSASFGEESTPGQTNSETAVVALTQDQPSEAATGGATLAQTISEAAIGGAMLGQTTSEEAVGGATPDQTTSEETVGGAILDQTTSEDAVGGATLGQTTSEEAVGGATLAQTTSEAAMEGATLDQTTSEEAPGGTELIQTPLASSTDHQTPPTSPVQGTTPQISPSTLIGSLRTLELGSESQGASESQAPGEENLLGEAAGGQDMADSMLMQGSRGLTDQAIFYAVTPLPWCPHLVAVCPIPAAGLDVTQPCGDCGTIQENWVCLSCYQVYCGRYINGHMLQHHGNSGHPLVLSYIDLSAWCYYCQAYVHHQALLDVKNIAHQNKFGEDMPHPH
- method: Inhibition of N-terminal GST-tagged recombinant human HDAC6 expressed in baculovirus infected Sf9 insect cells using Ac-Leu-Gly-Lys(Ac)-AMC as substrate incubated for 30 mins by fluorescence based assay
Write the value in µM as a bare number.

INSERT INTO assay_data (mol_smiles, tested_on, meas_value) VALUES
  ('COc1cc2c(cc1-c1c(C)noc1C)[nH]c1nc(C)nc(NCCCCCCC(=O)NO)c12', 'Protein deacetylase HDAC6 (Homo sapiens, UniProt Q9UBN7)', 0.014);

// next item, IC50 requested
The compound listed as COc1cc2c(cc1-c1c(C)noc1C)[nH]c1ncnc(NCCCCCCC(=O)NO)c12 shows IC50 equal to 0.009
